Test: Metabolic stability in Sprague-Dawley rat liver microsomes at 10 ug/mL after 60 mins by HPLC
Assay type: ADME, Microsome
Conditions: read-out: Stability
property-label: remaining at 1 h, 10 ug/mL (%)
Quick note: give the figure in %, leave out the unit.

Would you please look over these solved cases?
# input-smiles, remaining at 1 h, 10 ug/mL [%]
data = [
    ("C=C(C)[C@@]12C[C@@H](C)[C@@]34OC(Cc5ccccc5)(O[C@@H]1[C@@H]3C=C(COC(=O)Cc1ccc(NS(C)(=O)=O)c(OC)c1)C[C@]1(O)C(=O)C(C)=C[C@@H]41)O2", 81.4),
    ("C=C(C)[C@]12C[C@@H](C)[C@@]34O[C@](Cc5ccccc5)(O[C@@H]1[C@@H]3C=C(COC(=O)Cc1ccc(O)c(OC)c1)C[C@]1(O)C(=O)C(C)=C[C@@H]41)O2", 57.6),
]

Okay, now this molecule:
Problem: Return value of remaining at 1 h, 10 ug/mL for input `C=C(C)[C@@]12C[C@@H](C)[C@@]34OC(Cc5ccccc5)(O[C@@H]1[C@@H]3C=C(COC(=O)Cc1ccc(F)cc1F)C[C@]1(O)C(=O)C(C)=C[C@@H]41)O2` , no commentary.
Solution: 57.9

Reference for the values: ChEMBL document CHEMBL1140894
